# Plat annotations
species: Rattus norvegicus; assay: Open TG-GATES - Regimen: Daily Repeat; assay type: toxicity, organism-based, Sprague-Dawley; design: regimen Daily Repeat, gender Male, age 6 weeks; conditions: in vivo, po, 0 mg/kg, […], tissue Blood, route gavage, dose level Control, time 28 day
Give the quantity in x10_4/uL, number only.

CC(C)(S)[C@@H](N)C(=O)O    103.8
Oc1ncnc2[nH]ncc12    109.3

I would be grateful if you could share the reported Plat for CC(C)C(=O)Nc1ccc([N+](=O)[O-])c(C(F)(F)F)c1 [FLUTAMIDE] .
107.9

Given the compound `CC(=O)Oc1cc(C(C)C)c(OCCN(C)C)cc1C` , what is its reported Plat?
100.5

Recorded Plat of `C[C@]12CCC(=O)C=C1CC[C@@H]1[C@@H]2CC[C@@]2(C)[C@H]1CC[C@]2(C)O` , please.
106.1

Which value of Plat has been reported for CC(=N)S [THIOACETAMIDE] in the records?
104.1

====

species on record: Rattus norvegicus; test: Open TG-GATES - Regimen: Single; type: toxicity, organism-based, Sprague-Dawley; set-up: regimen Single, gender Male, age 6 weeks; details: in vivo, po, 0 mg/kg, 6 h, tissue Blood, route gavage, dose level Control
# PT per entry
Write down the numeric answer in s and omit the unit.

Answered examples (5):
CN1C(=O)OC(C)(C)C1=O    13.8
CC(C)C(=O)Nc1ccc([N+](=O)[O-])c(C(F)(F)F)c1 [FLUTAMIDE]    12.5
CCN1CCCC1CNC(=O)c1cc(S(N)(=O)=O)ccc1OC (stereo unspecified) [SULPIRIDE]    13.5
O=C(O)c1cccnc1    16.5
CC(C)(S)[C@@H](N)C(=O)O    14.3

Given the entry `CCC(C)(C)C(=O)O[C@H]1C[C@@H](C)C=C2C=C[C@H](C)[C@H](CC[C@@H]3C[C@@H](O)CC(=O)O3)[C@H]21` , report its measured PT.
11.8

Given `CC(=O)Oc1cc(C(C)C)c(OCCN(C)C)cc1C` , state its recorded PT.
16.4

Item under review: `CCc1oc2ccccc2c1C(=O)c1cc(I)c(O)c(I)c1` . Reported PT?
12

If you can, please state the reported PT value of `Nc1nc(N)c2nc(-c3ccccc3)c(N)nc2n1` .
14

Look up PT for this compound: CC(=N)S [THIOACETAMIDE]
12.1

Fill blank: measured PT of the compound `Oc1ncnc2[nH]ncc12` is ____.
12.3

====

In this section, each of the compounds is paired with its reported MCHC.
species on record: Rattus norvegicus; assay: Open TG-GATES - Regimen: Single; assay type: toxicity, organism-based, Sprague-Dawley; design: regimen Single, gender Male, age 6 weeks; conditions: in vivo, po, 0 mg/kg, 6 h, tissue Blood, route gavage, dose level Control
Write the answer as a number in %, unit excluded.

For orientation, consider the following solved cases.
CC(C)(S)[C@@H](N)C(=O)O    32.4
C[C@](N)(Cc1ccc(O)c(O)c1)C(=O)O    33.5
CCSCC[C@H](N)C(=O)O    34.1

Can you share its MCHC? I mean this compound: CCN1CCCC1CNC(=O)c1cc(S(N)(=O)=O)ccc1OC (stereo unspecified) [SULPIRIDE]
32

Which MCHC value belongs to `Nc1nc(N)c2nc(-c3ccccc3)c(N)nc2n1` ?
32.9

What value of measured MCHC is listed for `C[C@]12CCC(=O)C=C1CC[C@@H]1[C@@H]2CC[C@@]2(C)[C@H]1CC[C@]2(C)O` ?
34

Reported MCHC, compound `CN1C(=O)OC(C)(C)C1=O` : ____
33.2

MCHC lookup needed for `C#C[C@]1(O)CC[C@H]2[C@@H]3CCc4cc(O)ccc4[C@H]3CC[C@@]21C` , thanks.
33.6

If you can, please state the reported MCHC value of `CC(=O)Oc1cc(C(C)C)c(OCCN(C)C)cc1C` .
34.6
